meta.source: patent US12391641B2

Target: Human prostaglandin E2 receptor 4 (EP4) (Homo sapiens, UniProt P35408)
Construct: expressed in transfected cells; host or cells: HEK293 cells transduced with EP4 BacMam virus
Sequence (P35408 whole entry): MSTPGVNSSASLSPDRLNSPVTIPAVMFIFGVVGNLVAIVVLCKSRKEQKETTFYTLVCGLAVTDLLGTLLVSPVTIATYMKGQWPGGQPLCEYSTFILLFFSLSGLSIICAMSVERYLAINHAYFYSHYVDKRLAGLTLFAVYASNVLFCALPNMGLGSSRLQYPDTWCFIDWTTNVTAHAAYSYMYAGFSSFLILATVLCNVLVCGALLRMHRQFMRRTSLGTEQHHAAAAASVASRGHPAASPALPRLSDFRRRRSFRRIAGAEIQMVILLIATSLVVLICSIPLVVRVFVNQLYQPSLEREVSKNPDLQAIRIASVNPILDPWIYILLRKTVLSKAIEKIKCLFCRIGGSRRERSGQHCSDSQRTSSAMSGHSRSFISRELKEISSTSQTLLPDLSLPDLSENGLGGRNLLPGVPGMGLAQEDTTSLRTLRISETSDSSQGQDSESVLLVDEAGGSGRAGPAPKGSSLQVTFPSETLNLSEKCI
Test: cAMP Gs Functional Assay (HTRF cAMP dynamic-2), antagonism of PGE2
Assay type: cell-based
Conditions: HEK293 cells transfected with EP4 BacMam virus; PGE2 challenge at EC80 (7 nM); pIC50 converted to functional pKb with a modified Cheng Prussoff equation; read-out: Human EP4 fpKb (converted)
Sorting guide: entries reporting Ki beneath 7 nM go in the 1 pile, the rest go in the -1 pile.

- CC(C)[C@@H](OCc1ccc(C2CC2)cc1)C(=O)N[C@@H](C)c1ccc(C(=O)O)cc1 [Example 30]: 1
- CC(C)[C@H](OCc1ccc(S(C)(=O)=O)cc1)C(=O)N[C@@H](C)c1ccc(C(=O)O)cc1 [Example 9]: -1
- O=C(O)c1ccc(C2(NC(=O)C(OCc3ccc(F)c(F)c3)C3CCC3)CC2)cc1 (stereo not drawn) [Example 97]: -1
- CC(C)[C@@H](OCc1ccc(F)cc1)C(=O)N[C@@H](C)c1ccc(C(=O)NS(=O)(=O)C2CC2)cc1 [Example 81]: -1
- CC(C)[C@@H](OCc1cccc(S(=O)(=O)C2CC2)c1)C(=O)NC1(c2ccc(C(=O)O)cc2)CC1 [Example 91]: -1
- CC(C)C(OCc1cccc(C2COC2)c1)C(=O)N[C@@H](C)c1ccc(C(=O)O)cc1 (single isomer, unassigned) [Example 48]: -1
- CC(C)[C@@H](OCc1cccc(C#N)c1)C(=O)N[C@@H](C)c1ccc(C(=O)O)cc1 [Example 22]: -1
- CC(O[C@@H](C(=O)N[C@@H](C)c1ccc(C(=O)O)cc1)C(C)C)c1ccc(C(F)(F)F)cc1 (mixture of isomers) [Example 51]: -1
- CC(C)[C@@H](OCc1ccc(C(F)(F)F)cc1)C(=O)NC1(c2ccc(-c3nnn[nH]3)cc2)CC1 [Example 69]: 1
- CC(C)[C@@H](OCc1ccc(S(F)(F)(F)(F)F)cc1)C(=O)N[C@@H](C)c1ccc(C(=O)O)cc1 [Example 26]: -1
- CC(C)[C@@H](OCc1ccc(C(F)(F)F)cc1)C(=O)NC1(c2ccc(C(=O)O)cc2)CCC1 [Example 73]: -1
- CC(C)[C@@H](OCc1cccc(OC(F)F)c1)C(=O)N[C@@H](C)c1ccc(C(=O)O)cc1 [Example 24]: 1
- CC(C)[C@@H](OCc1ccc(C(F)(F)F)cc1)C(=O)NC(C)(C)c1ccc(C(=O)O)cc1 [Example 64]: -1
- CC(C)[C@@H](OCc1ccc(F)c(F)c1)C(=O)NC1(c2ccc(C(=O)O)cc2)CC1 [Example 37]: 1
- CC(C)[C@@H](OCc1cccc(S(C)(=O)=O)c1)C(=O)N[C@@H](C)c1ccc(C(=O)O)cc1 [Example 8]: -1
- CC(C)[C@@H](OCc1cccc(Cl)c1)C(=O)NC1(c2ccc(C(=O)O)cc2)CC1 [Example 50]: -1
- CC(C)[C@@H](OCc1ccc(C(F)F)cn1)C(=O)NC1(c2ccc(C(=O)O)cc2)CC1 [Example 88]: -1
- O=C(O)c1ccc(C2(NC(=O)C(OCc3cccc(Cl)c3)C3CCC3)CC2)cc1 (stereo not drawn) [Example 98]: 1
- COc1ccc(COC(C(=O)N[C@@H](C)c2ccc(C(=O)O)cc2)C(C)C)cc1 (mixture of isomers) [Example 6]: -1
- CC(C)C(OCc1ccc(C2COC2)cc1)C(=O)N[C@@H](C)c1ccc(C(=O)O)cc1 (mixture of isomers) [Example 47]: -1
- CC(C)[C@@H](OCc1ccc(C(F)(F)F)cc1)C(=O)NC1(c2ccc(C(=O)O)cc2)CC1 [Example 2]: 1
- CC(C)[C@@H](OCc1cccc(CO)c1)C(=O)N[C@@H](C)c1ccc(C(=O)O)cc1 [Example 45]: -1
- CC(C)[C@@H](OCc1cccc(Cl)c1)C(=O)N[C@@H](C)c1ccc(C(=O)O)cc1 [Example 12]: 1
- CC(C)[C@@H](OCc1ccc(F)c(OC(F)F)c1)C(=O)NC1(c2ccc(C(=O)O)cc2)CC1 [Example 57]: 1
- C[C@H](NC(=O)C(OCc1ccc(C(F)(F)F)cc1)C1CCC1)c1ccc(C(=O)O)cc1 (mixture of isomers) [Example 92]: 1
- CC(C)[C@@H](OCc1ccc(F)c(C2CC2)c1)C(=O)N[C@@H](C)c1ccc(C(=O)O)cc1 [Example 85]: 1
- CC(C)[C@@H](OCc1ccc(F)c(S(C)(=O)=O)c1)C(=O)N[C@@H](C)c1ccc(C(=O)O)cc1 [Example 35]: -1
- CC(C)[C@@H](OCc1cccc(C#N)c1)C(=O)NC1(c2ccc(C(=O)O)cc2)CC1 [Example 54]: -1
- CC(C)[C@@H](OCc1ccc(C(F)(F)F)cn1)C(=O)NC1(c2ccc(C(=O)O)cc2)CC1 [Example 75]: -1
- O=C(O)c1ccc(C2(NC(=O)[C@@H](OCc3cccc(OC(F)F)c3)C3CCC3)CC2)cc1 [Example 100]: -1
